# reported kon; entries follow
# ASSAY SYSTEM: T1, Full-length human HER3 extracellular domain (ECD) (human, UniProt P21860 20-643)
# T1 construct: also called human HER3 ECD; HER-3 ECD full length
# T1 sequence (P21860 20-643): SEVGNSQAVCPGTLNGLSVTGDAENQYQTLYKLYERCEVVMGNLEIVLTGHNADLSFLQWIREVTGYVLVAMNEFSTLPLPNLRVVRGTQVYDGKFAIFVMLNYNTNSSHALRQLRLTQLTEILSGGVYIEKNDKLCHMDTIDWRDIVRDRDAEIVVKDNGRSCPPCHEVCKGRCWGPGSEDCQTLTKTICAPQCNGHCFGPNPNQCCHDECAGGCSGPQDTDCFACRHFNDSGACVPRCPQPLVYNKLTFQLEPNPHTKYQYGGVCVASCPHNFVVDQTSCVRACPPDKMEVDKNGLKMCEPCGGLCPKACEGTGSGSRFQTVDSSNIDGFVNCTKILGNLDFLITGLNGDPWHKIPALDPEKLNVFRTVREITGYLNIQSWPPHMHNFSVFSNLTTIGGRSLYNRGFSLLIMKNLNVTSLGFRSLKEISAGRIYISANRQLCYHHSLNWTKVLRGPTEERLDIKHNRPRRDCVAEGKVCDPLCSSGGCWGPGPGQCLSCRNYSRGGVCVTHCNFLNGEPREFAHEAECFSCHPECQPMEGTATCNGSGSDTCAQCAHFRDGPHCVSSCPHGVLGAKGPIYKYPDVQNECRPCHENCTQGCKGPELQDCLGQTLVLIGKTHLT
# ASSAY EXPLANATION: BIACORE 3000 SPR, mAb captured by anti-human Fc, ECD as analyte, 25 C
# Protocol: The binding kinetics of these antibodies for was assessed using a BIACORE™ 3000. Antibodies were captured on a CM5 biosensor chip to which an immobilized anti-human IgG (Fc specific) BIACORE™ (GE Healthcare cat# BR-1008-39) monoclonal antibody had been conjugated using supplied coupling buffer (9000 RU). […] Kinetics were determined by global fitting of data to the 1:1 Langmuir model using BIACORE™ Evaluation software. […]
Give the value in M⁻¹ s⁻¹ but do not write M⁻¹ s⁻¹ after it.

Worked examples, 2 binders total:
binder="Chimeric 15D5 antibody (antibody, human IgG1, V domains shown, To be rechecked; also called Ch15D5; ch15D5) VH: EFQLQQSGPELVKPGASVKISCKASGYSFTDYNMNWVKQNNGKSLEWIGGINPNYGTTVYNQKFKGKATLTVDQSSSTAYMQLVSLTSEDSAVYYCARMTTIVPFDYWGQGTTLTVSS VL: DIQMTQTTFSLSASLGDRVTISCRASQDISNYLNWYQQKPDGTVKLLIYYTSTLHSGVPSRFSGSGSGTDYFLTIRNLEEEDIATYFCQQGYTLPWTFGGGTKLDIK" value_unit="M⁻¹ s⁻¹" recorded_measurement=44000
binder="15D5 H3L3 antibody (antibody, V domains shown, also called 15D5 H31.3 antibody) VH: QVQLVQSGAEVKKPGASVKVSCKASGYTFTDYNMNWVRQAPGQGLEWMGGINPNYGTTVYNQKFKGKATLTVDQSISTAYMELSRLRSDDTAVYYCARMTTIVPFDYWGQGTTVTVSS VL: DIQMTQSPSSLSASVGDRVTITCRASQDISNYLNWYQQKPGKAPKLLIYYTSTLHSGVPSRFSGSGSGTDFTLTISSLQPEDFATYYCQQGYTLPWTFGQGTKLEIKR" value_unit="M⁻¹ s⁻¹" recorded_measurement=42100

Turning now to a further record.
(Q) Query: kon; subject: 1D9 H0L7 RR antibody (antibody, V domains shown, Humanized RR variant; captured by anti-human Fc) VH: QVQLVQSGAEVKKPGASVKVSCKASGYTFTSYWMHWVRQAPGQGLEWMGVIDPSDGYSHYNQKFKGRVTMTRDTSISTAYMELSRLRSDDTAVYYCARGLAGTLDYWGQGTTVTVSS VL: DVVMTQSPLSLPVTLGQPASISCRSSQSIVHSSGNTYLQWFQQRPGQSPRRLISKVSNRFSGVPDRFSGSGSGTDFTLKISRVEAEDVGVYYCFQGSHVPWTFGQGTKLEIKR
(A) 32700

Entry source: patent US20130156779A1
